test: Cytotoxicity against RBEC at 1 to 10 uM after 8 hrs by EZ4U assay; conditions: rat
Property Name: Activity

A selection of reference data follows.
{"Molecule": "COC(=O)[C@H](Cc1ccc2c(c1)OCO2)[C@@H](Cc1ccc2c(c1)OCO2)C(=O)OC", "Activity": "Non-toxic"}
{"Molecule": "O=C1OCc2c1cc1ccc3c(c1c2-c1ccc2c(c1)OCO2)OCO3", "Activity": "Non-toxic"}
{"Molecule": "COCCCc1cc(OC)c2oc(-c3ccc4c(c3)OCO4)cc2c1", "Activity": "Non-toxic"}
{"Molecule": "COC/C=C/c1cc(OC)c2oc(-c3ccc4c(c3)OCO4)cc2c1", "Activity": "Non-toxic"}
{"Molecule": "COC(=O)/C(=C/c1ccc2c(c1)OCO2)C(Cc1ccc2c(c1)OCO2)C(=O)OC (stereo unspecified)", "Activity": "Non-toxic"}

Shifting focus to the molecule that follows.
Ask: Could you tell me which Activity is on file for CC(=O)O[C@H](c1ccc2c(c1)OCO2)[C@H]1C(=O)OC[C@@H]1Cc1ccc2c(c1)OCO2 ?
Reply: Non-toxic
